Sourced from patent US12655131B2

Please go through the items and note down their microsomal CLint at 1 µM.
Assay protocol: Microsome stability, human liver microsomes
Format: in vitro ADME
Condition set: NADPH, 37 °C, pH 7.4, read-out: hLM CLint (μg/min/mg)

GET /value?item= Nc1nc(NCc2ccc(I)cc2)c(Cl)nc1C(=O)NCCN1CCN(Cc2ccccc2)CC1 &field=microsomal CLint at 1 µM returns 258 µL/min/mg

GET /value?item= N/C(=N\C(=O)c1nc(Cl)c(NCc2ccc(I)cc2)nc1N)NCC1CCN(CCc2ccccc2)CC1 &field=microsomal CLint at 1 µM returns 52 µL/min/mg

GET /value?item= N/C(=N\C(=O)c1nc(Cl)c(NCc2ccc(I)cc2)nc1N)NCCCOc1ccc(Cl)cc1 &field=microsomal CLint at 1 µM returns 20 µL/min/mg
